- EXPERIMENTAL SYSTEM: Platelet-derived growth factor receptor alpha (Homo sapiens)
- Sequence (P16234 whole entry): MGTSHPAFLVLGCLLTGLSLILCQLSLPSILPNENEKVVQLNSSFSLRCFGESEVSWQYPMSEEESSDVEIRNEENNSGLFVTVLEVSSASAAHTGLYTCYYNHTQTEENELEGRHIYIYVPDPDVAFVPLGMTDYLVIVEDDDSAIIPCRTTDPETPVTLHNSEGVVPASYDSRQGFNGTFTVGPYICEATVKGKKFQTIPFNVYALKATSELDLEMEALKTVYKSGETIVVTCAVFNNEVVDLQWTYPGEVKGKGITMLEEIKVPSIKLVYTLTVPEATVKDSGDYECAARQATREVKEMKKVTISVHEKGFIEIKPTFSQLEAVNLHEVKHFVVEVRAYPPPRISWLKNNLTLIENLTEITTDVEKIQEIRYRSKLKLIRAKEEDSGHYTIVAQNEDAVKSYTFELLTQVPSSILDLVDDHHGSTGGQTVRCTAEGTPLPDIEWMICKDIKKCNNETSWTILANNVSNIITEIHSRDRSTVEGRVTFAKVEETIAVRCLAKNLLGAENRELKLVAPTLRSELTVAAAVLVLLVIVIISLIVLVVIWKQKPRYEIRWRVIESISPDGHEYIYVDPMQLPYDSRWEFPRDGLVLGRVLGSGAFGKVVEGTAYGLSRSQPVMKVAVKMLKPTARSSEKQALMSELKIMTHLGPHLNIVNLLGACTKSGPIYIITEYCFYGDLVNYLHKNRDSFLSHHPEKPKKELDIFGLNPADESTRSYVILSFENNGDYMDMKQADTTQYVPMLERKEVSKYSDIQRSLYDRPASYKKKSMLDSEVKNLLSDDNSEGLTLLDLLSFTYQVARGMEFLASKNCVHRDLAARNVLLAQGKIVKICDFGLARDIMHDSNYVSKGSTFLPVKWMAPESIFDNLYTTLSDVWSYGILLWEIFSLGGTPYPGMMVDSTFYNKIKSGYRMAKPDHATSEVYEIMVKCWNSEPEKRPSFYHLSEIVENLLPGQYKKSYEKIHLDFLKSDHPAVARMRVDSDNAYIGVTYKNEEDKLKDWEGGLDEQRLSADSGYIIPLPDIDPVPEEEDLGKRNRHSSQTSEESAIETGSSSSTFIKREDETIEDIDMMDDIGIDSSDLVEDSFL
pIC50: −log10 of the molar value.

STRUCTURE: CC(=O)N1CCN(c2cnc3cc(C(F)(F)F)cc(NCc4cccc([N+](=O)[O-])c4)c3c2)CC1
EXPERIMENTAL SYSTEM: Platelet-derived growth factor receptor alpha (Homo sapiens)
pIC50: < 5.00

---

Parameter: pIC50. Scope: all listed entries.
- System: NIH3T3
- ASSAY REMARKS: Antiproliferative activity against mouse NIH/3T3 cells after 72 hrs
- Type: functional, cell-based
- STUDY CONDITIONS: NIH3T3, 72 h
pIC50: −log10 of the molar value.

STRUCTURE: CS(=O)(=O)N1CCN(c2cnc3cc(C(F)(F)F)cc(NCc4cccc([N+](=O)[O-])c4)c3c2)CC1
pIC50: ≤ 4.30

STRUCTURE: CCOC(=O)CN1CCN(c2cnc3cc(C(F)(F)F)cc(NCc4cccc([N+](=O)[O-])c4)c3c2)CC1
pIC50: ≤ 4.30

STRUCTURE: CC(=O)N1CCN(c2cnc3cc(C(F)(F)F)cc(NCc4cccc([N+](=O)[O-])c4)c3c2)CC1
pIC50: ≤ 4.30
